The following binders are listed with their measured % residual binding after heat treatment (room temperature = 100%) values.
Target: T1, FLAG-tagged human APRIL (human, UniProt O75888 105-250, limits assumed)
T1 construct: also called FLAG-tagged APRIL; FLAG-APRIL; not shown: FLAG tag
T1 sequence (looked up): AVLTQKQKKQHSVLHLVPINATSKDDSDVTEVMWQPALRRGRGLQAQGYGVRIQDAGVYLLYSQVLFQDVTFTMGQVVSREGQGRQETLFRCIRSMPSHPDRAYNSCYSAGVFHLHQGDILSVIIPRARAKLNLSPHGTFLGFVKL
Experiment: FLAG-APRIL ELISA after 10 min at 70 °C, antibody at 3.16 µg/ml
Number in %, nothing else.

Requested read-out: % residual binding after heat treatment (room temperature = 100%). Entry: VH12.VL15 (antibody, human IgG4 S228P, kappa, V domains shown, Humanized IgG4 (S241P, Kabat) with human kappa, from HEK293T; also called 12.15) VH: QVQLVQSGAEVKKPGASVKVSCKASGYTFTSYVMHWVRQAPGQGLEWMGYINPYNDAPKYNEKFKGRVTMTRDTSISTAYMELSRLRSDDTAVYYCARGLGYALYYAMDYWGQGTTVTVSS VL: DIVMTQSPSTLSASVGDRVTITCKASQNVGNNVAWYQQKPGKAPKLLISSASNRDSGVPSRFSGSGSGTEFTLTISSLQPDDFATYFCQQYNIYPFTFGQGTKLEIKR
50.2

# repeat for VH11.VL15 (antibody, human IgG4 S228P, kappa, V domains shown, Humanized IgG4 (S241P, Kabat) with human kappa, from HEK293T; also called 11.15) VH: QVQLVQSGAEVKKPGASVKVSCKASGYTFTSYVMHWVRQAPGQRLEWMGYINPYNDAPKYNEKFKGRVTITRDTSASTAYMELSSLRSEDTAVYYCARGLGYALYYAMDYWGQGTTVTVSS VL: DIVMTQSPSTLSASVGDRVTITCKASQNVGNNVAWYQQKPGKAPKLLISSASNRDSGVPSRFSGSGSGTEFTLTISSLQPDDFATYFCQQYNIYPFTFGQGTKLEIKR
59.1

# repeat for VH13.VL15 (antibody, human IgG4 S228P, kappa, V domains shown, Humanized IgG4 (S241P, Kabat) with human kappa, from HEK293T; also called 13.15) VH: QVQLVQSGAEVKKPGASVKVSCKASGYTFTSYVMHWVRQAPGQGLEWMGYINPYNDAPKYNEKFKGRVTMTRDTSTSTVYMELSSLRSEDTAVYYCARGLGYALYYAMDYWGQGTMVTVSS VL: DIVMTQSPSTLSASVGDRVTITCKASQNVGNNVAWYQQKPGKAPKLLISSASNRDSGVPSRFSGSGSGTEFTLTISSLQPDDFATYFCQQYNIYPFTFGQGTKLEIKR
80.5

# repeat for hAPRIL.01A (antibody, mouse IgG1, kappa, V domains shown, Mouse antibody; also called mouse hAPRIL.01A antibody) VH: EVQLQQSGPELVKPGASVKMSCKASGYTFTSYVMHWVKQKPGQGLEWIGYINPYNDAPKYNEKFKGKATVTSDKSSGTAYMELSSLTSEDSAVYYCARGLGYALYYAMDYWGQGTSVTVSS VL: DIVMTQSQKFKSTSVGDRVSVTCKASQNVGNNVAWYQQKAGQSPKALISSASNRDSGVPDRFTGSGSGTDFTLTISNVQSEDLADYFCQQYNIYPFTFGSGTKLEIKR
6.7
